biological target: α4β2* nAChRs (Rattus norvegicus, UniProt P09483+P12390); details: [^3H]Nicotine Binding Ki, Table 4; mean (95% confidence interval)
Sequence (P09483 31-630): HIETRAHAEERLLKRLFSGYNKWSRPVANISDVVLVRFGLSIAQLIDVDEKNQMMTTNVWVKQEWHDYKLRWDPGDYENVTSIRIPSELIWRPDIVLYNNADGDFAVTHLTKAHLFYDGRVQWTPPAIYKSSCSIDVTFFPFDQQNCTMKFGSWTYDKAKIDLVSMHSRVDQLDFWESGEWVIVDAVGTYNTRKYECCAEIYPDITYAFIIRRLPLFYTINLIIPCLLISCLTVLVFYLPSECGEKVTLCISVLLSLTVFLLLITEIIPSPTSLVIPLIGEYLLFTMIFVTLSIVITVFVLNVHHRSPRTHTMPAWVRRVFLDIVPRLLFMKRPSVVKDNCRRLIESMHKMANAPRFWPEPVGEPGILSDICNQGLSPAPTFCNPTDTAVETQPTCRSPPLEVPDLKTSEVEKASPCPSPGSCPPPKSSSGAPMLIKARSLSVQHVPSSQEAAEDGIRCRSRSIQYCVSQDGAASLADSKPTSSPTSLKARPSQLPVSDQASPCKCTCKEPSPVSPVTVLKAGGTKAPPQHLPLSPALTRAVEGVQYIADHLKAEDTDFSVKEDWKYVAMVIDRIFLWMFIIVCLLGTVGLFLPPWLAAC
Sequence (P12390 25-500): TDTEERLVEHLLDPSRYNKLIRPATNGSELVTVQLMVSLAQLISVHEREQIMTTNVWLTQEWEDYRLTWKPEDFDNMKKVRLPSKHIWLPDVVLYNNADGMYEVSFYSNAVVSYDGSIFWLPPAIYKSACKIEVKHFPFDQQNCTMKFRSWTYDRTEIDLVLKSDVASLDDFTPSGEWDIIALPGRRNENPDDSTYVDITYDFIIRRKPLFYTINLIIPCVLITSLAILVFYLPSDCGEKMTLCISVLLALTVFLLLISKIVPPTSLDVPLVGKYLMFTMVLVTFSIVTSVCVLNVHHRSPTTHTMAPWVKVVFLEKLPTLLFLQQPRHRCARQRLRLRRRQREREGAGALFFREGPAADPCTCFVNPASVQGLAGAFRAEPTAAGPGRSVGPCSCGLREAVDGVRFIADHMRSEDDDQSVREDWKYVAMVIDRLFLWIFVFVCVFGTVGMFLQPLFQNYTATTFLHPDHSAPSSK
quantityName: Ki (nM)
Note: unit nM is implicit; provide only the numeric part.

Request: # returns recorded Ki (system: α4β2* nAChRs (Rattus norvegicus, UniProt P09483+P12390)) for CCCCCCCCCC[n+]1cccc(C2CCCN2C)c1 (stereo not shown)
Result: 90

====

molecular target: α4β2* nAChRs (Rattus norvegicus, UniProt P09483+P12390); conditions: read-out: [^3H]Nicotine Binding Ki; Table 7; mean (standard error)
quantityName: pKi
Value format note: pKi is -log10 of concentration (mol/L); just state the number.

Request: So what does the record say about pKi for [Br-].[Br-].c1cc[n+](CCCCCCCCCCCC[n+]2ccccc2)cc1 ?
Result: 5.04

Request: Quick check: pKi of CN1CCC[C@H]1c1ccc[n+](CCCCCCCCCCCC[n+]2cccc([C@@H]3CCCN3C)c2)c1 ?
Result: 5.71
